# experiment_notes: Drug metabolism in Escherichia coli K-12 lysates assessed as esterase-mediated drug hydrolysis by measuring apparent first-order rate constant at 200 uM incubated up to 24 hrs by HPLC analysis
# Assay type: ADME, subcellular, Lysate
# experimental_parameters: escherichia coli k-12, isolated protein
Catalogue of K values
The reply should contain only the number, in h⁻¹.

Known results for molecules:
1. O=C(CCC(=O)OC[C@@H](NC(=O)C(Cl)Cl)[C@H](O)c1ccc([N+](=O)[O-])cc1)NCC(=O)N[C@H](CO)C(=O)O | 3.763
2. NCCCC[C@@H](NC(=O)[C@@H](CCCCN)NC(=O)CCC(=O)OC[C@@H](NC(=O)C(Cl)Cl)[C@H](O)c1ccc([N+](=O)[O-])cc1)C(=O)O | 0.317

Tell me the measured K of O=C(O)CNC(=O)[C@@H](CO)NC(=O)CCC(=O)OC[C@@H](NC(=O)C(Cl)Cl)[C@H](O)c1ccc([N+](=O)[O-])cc1 , please.
1.267

Which K is listed for NCCCC[C@H](NC(=O)[C@H](CCCCN)NC(=O)CCC(=O)OC[C@@H](NC(=O)C(Cl)Cl)[C@H](O)c1ccc([N+](=O)[O-])cc1)C(=O)O ?
0.31
